System: 935938-334-R-J1-PDC complex spheroid viability;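 further: spheroids exposed to drugs for seven days before viability read; 100% = DMSO vehicle control wells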
protocol: Anticancer human tumor 935938-334-R-J1-PDC patient-derived small intestine adenocarcinoma cell line growth inhibition [POLQ]
protocolConditions: second compound 0.0316 µM; first compound 0.00316 µM; hits give low values
recordedEndpoint: viability, T/C (%)

>>> number("COc1cccc(OCCCN)c1-c1cc(Nc2cnc(C#N)cn2)n[nH]1 + Nc1ccc(C#CCN(C(=O)Cc2ncc(C(F)(F)F)cc2C(F)(F)F)c2ccc(F)cc2)nn1")
95.1
>>> number("Cn1ncnc1[C@H]1c2n[nH]c(=O)c3cc(F)cc(c23)N[C@@H]1c1ccc(F)cc1 + COC1C(OC(N)=O)C(O)C(Oc2ccc3c(O)c(NC(=O)c4ccc(O)c(CC=C(C)C)c4)c(=O)oc3c2C)OC1(C)C")
85.8
>>> number("CC[C@@]1(O)C(=O)OCc2c1cc1n(c2=O)Cc2cc3c(CN(C)C)c(O)ccc3nc2-1 + COC1C(OC(N)=O)C(O)C(Oc2ccc3c(O)c(NC(=O)c4ccc(O)c(CC=C(C)C)c4)c(=O)oc3c2C)OC1(C)C")
98.1
>>> number("C=CCn1c(=O)c2cnc(Nc3ccc(N4CCN(C)CC4)cc3)nc2n1-c1cccc(C(C)(C)O)n1 + COC1C(OC(N)=O)C(O)C(Oc2ccc3c(O)c(NC(=O)c4ccc(O)c(CC=C(C)C)c4)c(=O)oc3c2C)OC1(C)C")
97.9
